conditions: 298.15 K; 101.3 kPa; Liquid
metric: viscosity (mPa·s)
All answers are understood in mPa·s, so give the number only.

Consider the following illustrative entries.
IN: Look up viscosity: COCCO [2-methoxyethan-1-ol]
OUT: 1.543

IN: Look up viscosity: CC(=O)c1ccccc1 [acetophenone]
OUT: 1.653

IN: Look up viscosity: CCCCCCCCO [octan-1-ol]
OUT: 7.365

Please turn your attention to the following entry.
IN: Look up viscosity: CC(=O)N(C)C [N,N-dimethylethanamide]
OUT: 0.937
